Reference source for all entries: patent US20170027893A1

Molecular target: LPAAT-β (Homo sapiens)
Experiment: secondary thin layer chromatography (TLC) assay measuring fluorescent PA
Format: biochemical
Parameters: The assay utilizes full-length, recombinant, baculovirus-produced LPAAT-β; made in house
Details: Table 4
Doc: threshold 2000 nM (exclusive). Items with IC50 beneath it return label 1; others return label 0.

# strict comparison: is reported IC50 < 2000 nM? input = C=CCc1cc(-c2ccc(F)cc2)cc(C(C)=NNC(N)=S)c1O [Compound 19q]
label 0

Also need C=CCc1cc(-c2ccc(Cl)cc2Cl)cc(C(C)=NNC(N)=S)c1O [Compound 19r] , thanks.
label 0

Also need C=CCc1cc(C(C)C)cc(C(C)=NNC(N)=S)c1O [Compound 19g] , thanks.
label 1

Also need C=CCc1cc(CC)cc(C(C)=NNC(N)=S)c1O [Compound 19e] , thanks.
label 1

Also need C=CCc1cc(F)cc(C(C)=NNC(N)=S)c1O [Compound 19b] , thanks.
label 0

Also need C=CCc1cc(-c2ccc(C#N)cc2)cc(C(C)=NNC(N)=S)c1O [Compound 19u] , thanks.
label 1

====

Could you please report measured pIC50 for the items listed next?
Target: LPAAT-β (Homo sapiens)
Test: secondary thin layer chromatography (TLC) assay measuring fluorescent PA
Assay type: biochemical
Design: The assay utilizes full-length, recombinant, baculovirus-produced LPAAT-β; made in house
Conditions: Table 4
In simple prose, pIC50 is minus the logarithm base ten of a concentration in moles per litre.

// lookup pIC50 for C=CCc1cc(CCCCCC)cc(C(C)=NNC(N)=S)c1O [Compound 19k]
5.28

Also need C=CCc1cc(-c2ccc(Cl)cc2)cc(C(C)=NNC(N)=S)c1O [Compound 19p] , thanks.
5.60

Also need C=CCc1cc(Cl)cc(C(C)=NNC(N)=S)c1O [Compound 19a] , thanks.
5.48

Also need C=CCc1cc(-c2cc(Cl)cc(Cl)c2)cc(C(C)=NNC(N)=S)c1O [Compound 19t] , thanks.
4.77

====

Molecular target: LPAAT-β (Homo sapiens, UniProt O15120)
Assay: DTNB (Ellman's reagent) 96-well plate screening assay of LPAAT-β enzymatic activity
Assay type: biochemical
Design: The assay utilizes full-length, recombinant, baculovirus-produced LPAAT-β; made in house
Settings: Table 4; read-out: IC50 (μm) (DTNB assay) (converted)
Doc: threshold 200 nM (exclusive). Items with IC50 beneath it return rule met; others return rule not met.

# strict comparison: is reported IC50 < 200 nM? input = C=CCc1cc(-c2ccc(Br)cc2)cc(C(C)=NNC(N)=S)c1O [Compound 19o]
rule met

Also need C=CCc1cc(-c2ccc(F)cc2)cc(C(C)=NNC(N)=S)c1O [Compound 19q] , thanks.
rule not met

Also need C=CCc1cc(C(C)(C)C)cc(C(C)=NNC(N)=S)c1O [Compound 19i] , thanks.
rule not met

Also need C=CCc1cc(CCCCCC)cc(C(C)=NNC(N)=S)c1O [Compound 19k] , thanks.
rule not met

Also need C=CCc1cc(CCC)cc(C(C)=NNC(N)=S)c1O [Compound 19f] , thanks.
rule not met

====

Molecular target: UniProtKB O15120
Assay: DTNB (Ellman's reagent) 96-well plate screening assay of LPAAT-β enzymatic activity
Assay type: biochemical
Set-up: The assay utilizes full-length, recombinant, baculovirus-produced LPAAT-β; made in house
Conditions: read-out: IC50 (μM) (DTNB assay) (converted)
MEASURED ATTRIBUTE: log10 IC50 (log10 of the value in µM)
Give log10 of IC50, with IC50 taken in µM.

// lookup log10 IC50 for CC(=NNC(N)=S)c1cc(Cl)ccc1O [Compound 15e]
0.45

Also need C=CCc1cccc(C(C)=NNC(N)=S)c1O [Compound 15b] , thanks.
-0.28

Also need C=CCc1cc(CCCC)cc(C(C)=NNC(N)=S)c1O [Compound 19h] , thanks.
-0.80

Also need CCc1cccc(C(C)=NNC(N)=S)c1O [Compound 15c] , thanks.
-0.14

Also need C=CCc1cc(-c2ccc(Cl)c(Cl)c2)cc(C(C)=NNC(N)=S)c1O [Compound 19s] , thanks.
-0.44

Also need C=CCc1cc(CCCCCC)cc(C(C)=NNC(N)=S)c1O [Compound 19k] , thanks.
1.23

Also need C=CCc1cc(-c2ccc(Cl)cc2Cl)cc(C(C)=NNC(N)=S)c1O [Compound 19r] , thanks.
-0.28

Also need CC(C)c1cccc(C=NNC(N)=S)c1O , thanks.
1.11

Also need NC(=S)NN=Cc1cccc(Br)c1O , thanks.
0.18

====

Biological target: UniProt O15120
Assay: DTNB (Ellman's reagent) 96-well plate screening assay of LPAAT-β enzymatic activity
Format: biochemical
Set-up: The assay utilizes full-length, recombinant, baculovirus-produced LPAAT-β; made in house
Details: Table 4; read-out: IC50 (μm) (DTNB assay) (converted)
Doc: threshold 0.2 µM (exclusive). Items with IC50 beneath it return y; others return n.

# strict comparison: is reported IC50 < 0.2 µM? input = C=CCc1cc(Cl)cc(C(C)=NNC(N)=S)c1O [Compound 19a]
y

Also need C=CCc1cc(-c2ccc(Cl)cc2)cc(C(C)=NNC(N)=S)c1O [Compound 19p] , thanks.
n

Also need C=CCc1cc(Br)cc(C(C)=NNC(N)=S)c1O [Compound 19c] , thanks.
y

Also need C=CCc1cc(-c2ccc(C)c(Cl)c2)cc(C(C)=NNC(N)=S)c1O [Compound 19w] , thanks.
n

Also need C=CCc1cc(-c2cc(Cl)cc(Cl)c2)cc(C(C)=NNC(N)=S)c1O [Compound 19t] , thanks.
n

Also need C=CCc1cc(-c2cccc(C#N)c2)cc(C(C)=NNC(N)=S)c1O [Compound 19v] , thanks.
n

Also need C=CCc1cc(-c2ccc(C#N)cc2)cc(C(C)=NNC(N)=S)c1O [Compound 19u] , thanks.
n

Also need C=CCc1cc(CCCCC)cc(C(C)=NNC(N)=S)c1O [Compound 19j] , thanks.
y

Also need C=CCc1cc(-c2ccc(Cl)c(Cl)c2)cc(C(C)=NNC(N)=S)c1O [Compound 19s] , thanks.
n

Also need C=CCc1cc(CCCC)cc(C(C)=NNC(N)=S)c1O [Compound 19h] , thanks.
y

Also need C=CCc1cc(CC(=O)OC)cc(C(C)=NNC(N)=S)c1O [Compound 19m] , thanks.
n

Also need C=CCc1cc(F)cc(C(C)=NNC(N)=S)c1O [Compound 19b] , thanks.
n

Also need C=CCc1cc(-c2ccc(Cl)cc2Cl)cc(C(C)=NNC(N)=S)c1O [Compound 19r] , thanks.
n

Also need C=CCc1cc(C(C)C)cc(C(C)=NNC(N)=S)c1O [Compound 19g] , thanks.
y

Also need C=CCc1cc(C#N)cc(C(C)=NNC(N)=S)c1O [Compound 19d] , thanks.
n

====

Could you please report measured IC50 for the items listed next?
Biological target: LPAAT-β (Homo sapiens, UniProt O15120)
Sequence (O15120 24-278): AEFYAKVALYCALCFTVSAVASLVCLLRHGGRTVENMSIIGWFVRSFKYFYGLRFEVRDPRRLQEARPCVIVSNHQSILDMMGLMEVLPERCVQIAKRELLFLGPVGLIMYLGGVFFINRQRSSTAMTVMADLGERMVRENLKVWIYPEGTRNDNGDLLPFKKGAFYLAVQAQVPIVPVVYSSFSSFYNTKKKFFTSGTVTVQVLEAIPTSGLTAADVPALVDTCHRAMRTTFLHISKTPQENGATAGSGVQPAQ
Assay: secondary thin layer chromatography (TLC) assay measuring fluorescent PA
Format: biochemical
Design: The assay utilizes full-length, recombinant, baculovirus-produced LPAAT-β; made in house

// lookup IC50 for C=CCc1cccc(C(C)=NNC(N)=S)c1O [Compound 15b]
> 10 µM

Also need C=CCc1cc(-c2cc(Cl)cc(Cl)c2)cc(C(C)=NNC(N)=S)c1O [Compound 19t] , thanks.
17 µM

Also need C=CCc1cc(-c2cccc(C#N)c2)cc(C(C)=NNC(N)=S)c1O [Compound 19v] , thanks.
> 10 µM

Also need NC(=S)NN=Cc1cccc(F)c1O , thanks.
> 10 µM

Also need C=CCc1cccc(C=NNC(=S)NC)c1O [Compound 10a] , thanks.
> 10 µM

Also need C=CCc1cc(-c2ccc(Cl)cc2)cc(C(C)=NNC(N)=S)c1O [Compound 19p] , thanks.
2.5 µM

Also need C=CCc1cccc(C=NN=c2scc(-c3ccccc3)n2C)c1O [Compound 11a] , thanks.
> 10 µM

====

Could you please report measured pIC50 for the items listed next?
Molecular target: LPAAT-β (Homo sapiens, UniProt O15120)
Test: secondary thin layer chromatography (TLC) assay measuring fluorescent PA
Format: biochemical
Design: The assay utilizes full-length, recombinant, baculovirus-produced LPAAT-β; made in house
Conditions: Table 4
In simple prose, pIC50 is minus the logarithm base ten of a concentration in moles per litre.

// lookup pIC50 for C=CCc1cc(CCCCC)cc(C(C)=NNC(N)=S)c1O [Compound 19j]
5.49

Also need C=CCc1cc(-c2ccc(Br)cc2)cc(C(C)=NNC(N)=S)c1O [Compound 19o] , thanks.
5.38

Also need C=CCc1cc(CCC)cc(C(C)=NNC(N)=S)c1O [Compound 19f] , thanks.
5.62

Also need C=CCc1cc(-c2ccc(C)c(Cl)c2)cc(C(C)=NNC(N)=S)c1O [Compound 19w] , thanks.
5.04

Also need C=CCc1cc(-c2ccc(Cl)c(Cl)c2)cc(C(C)=NNC(N)=S)c1O [Compound 19s] , thanks.
5.62

Also need C=CCc1cc(CCCC)cc(C(C)=NNC(N)=S)c1O [Compound 19h] , thanks.
5.85

Also need C=CCc1cc(C(C)(C)C)cc(C(C)=NNC(N)=S)c1O [Compound 19i] , thanks.
5.89

Also need C=CCc1cc(Br)cc(C(C)=NNC(N)=S)c1O [Compound 19c] , thanks.
5.39
